Listing: M2 FDSS PA of selected molecules
target: human cloned CHRM2 receptor (M2_CHO cells) (Homo sapiens); construct: expressed in transfected cells; host or cells: CHO-K1; assay: CHRM2 Ca++ Flux Assay (agonist mode, FDSS 7000EX); type: cell-based; settings: Percent Activity measured to EC100 of Carbachol
Sequence (P08172 whole entry): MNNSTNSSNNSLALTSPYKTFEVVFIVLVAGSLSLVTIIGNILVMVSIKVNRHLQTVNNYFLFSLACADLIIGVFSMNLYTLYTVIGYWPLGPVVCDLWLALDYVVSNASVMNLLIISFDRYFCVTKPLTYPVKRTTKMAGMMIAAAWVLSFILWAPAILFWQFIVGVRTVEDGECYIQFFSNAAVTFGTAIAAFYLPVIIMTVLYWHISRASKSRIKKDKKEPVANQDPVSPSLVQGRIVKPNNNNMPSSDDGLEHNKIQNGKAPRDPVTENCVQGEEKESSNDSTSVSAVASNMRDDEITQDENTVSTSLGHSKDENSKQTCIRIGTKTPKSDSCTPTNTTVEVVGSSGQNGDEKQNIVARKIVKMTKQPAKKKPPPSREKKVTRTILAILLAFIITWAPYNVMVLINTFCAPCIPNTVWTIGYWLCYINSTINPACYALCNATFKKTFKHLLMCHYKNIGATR
Express your answer as a number followed by its unit.

[
  {
    "MOLECULE": "Fc1cncc(N2CC3(CC[C@@H](N4CCC(c5cc(F)ccc5OC5CCOCC5)CC4)C3)C2)c1 (single isomer, unassigned) [Example 10B]",
    "READOUT": "M2 FDSS PA",
    "ASSAY VALUE": "31%"
  }
]

Tell me the measured M2 FDSS PA of O=C(N1CC2(CC[C@@H](N3CCC(c4ccccc4OCC4CC4)CC3)C2)C1)C1(F)CC1 (single isomer, unassigned) [Example 7O] , please.
0%

Tell me the measured M2 FDSS PA of COc1ccccc1C1CCN([C@@H]2CCC3(C2)CN(c2ncns2)C3)CC1 (single isomer, unassigned) [Example 10Q] , please.
18%
